B1: Hairpin Ribozyme (parent)
chain: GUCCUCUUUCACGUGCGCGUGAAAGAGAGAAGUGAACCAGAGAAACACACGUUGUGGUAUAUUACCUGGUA

variants of: B1; experiment: self-cleavage, relative activity (ratio to wild type); higher = more cleavage; co-transcriptional
Decision: self-cleavage compared against 0.2; not below it gives Met, below it gives Not met.

mutation_id="C6U A30G" class_label="Not met"
mutation_id="G1C U5A" class_label="Not met"
mutation_id="U5A C66G" class_label="Not met"
mutation_id="A45G U58A" class_label="Not met"
mutation_id="U5A A43G" class_label="Not met"
mutation_id="C3A U58G" class_label=Met
mutation_id="A30U A39G" class_label="Not met"
mutation_id="C10U A43C" class_label="Not met"
mutation_id="G1C A49G" class_label=Met
mutation_id="G21A A28C" class_label=Met
mutation_id="C46G C65A" class_label="Not met"
mutation_id="A39G U53A" class_label=Met
mutation_id="G15C A45C" class_label="Not met"
